Give pIC50 for every item shown.
- Tested on: MDA-MB-231
- test protocol: Cytotoxicity against human MDA-MB-231 cells after 96 hrs by MTT assay
- Assay type: functional, cell-based
- recorded conditions: MDA-MB-231, 96 h
To interpret pIC50, take it as minus log10 of a concentration measured in moles per litre.

### Prompt What value of pIC50 has been reported for the following compound? COc1ccc(Nc2ncnc3cc4c(cc23)nc(C(C)C)n4C(C)C)cc1
### Response 4.45

### Prompt Similarly, COc1ccc(Nc2ncnc3cc4c(cc23)nc(C(C)C)n4C2CCCCC2)cc1 ?
### Response 4.68

###

Give pIC50 for every item shown.
- Test system: MOLT-4
- test protocol: Cytotoxicity against human MOLT4 cells after 96 hrs by MTT assay
- Type: functional, cell-based
- recorded conditions: MOLT-4, 96 h
To interpret pIC50, take it as minus log10 of a concentration measured in moles per litre.

### Prompt Find pIC50 (MOLT-4) for the entry CCCCn1c(C(C)C)nc2cc3c(Nc4ccc(OC)c(OC)c4)ncnc3cc21
### Response 5.18

### Prompt Similarly, CCCc1nc2cc3c(Nc4ccc(OC)c(OC)c4)ncnc3cc2n1CCCOC ?
### Response 4.96

### Prompt Similarly, CCCCn1c(C(C)C)nc2cc3c(Nc4ccc(OC)cc4)ncnc3cc21 ?
### Response 4.94

### Prompt Similarly, COc1ccc(Nc2ncnc3cc4c(cc23)nc(C(C)C)n4C2CCCCC2)cc1 ?
### Response 5.11

### Prompt Similarly, CCCCn1c(C(C)C)nc2cc3c(Nc4ccc(F)cc4)ncnc3cc21 ?
### Response 4.94

### Prompt Similarly, CC(C)c1nc2cc3c(Nc4ccccc4)ncnc3cc2n1C1CCCCC1 ?
### Response 5.55

###

- Tested on: PC-3
- test protocol: Cytotoxicity against human PC3 cells after 96 hrs by MTT assay
- Assay type: functional, cell-based
- recorded conditions: PC-3, 96 h
Give IC50 for every item shown.

### Prompt Find IC50 (PC-3) for the entry CCCCn1c(C(C)C)nc2cc3c(Nc4ccc(OC)c(OC)c4)ncnc3cc21
### Response > 100 µM

### Prompt Similarly, CCCc1nc2cc3c(Nc4ccc(OC)c(OC)c4)ncnc3cc2n1CCCOC ?
### Response 24.6 µM

### Prompt Similarly, CCOCCCn1c(C(C)C)nc2cc3c(Nc4ccc(OC)cc4)ncnc3cc21 ?
### Response > 100 µM

### Prompt Similarly, CCOCCCn1c(CC)nc2cc3c(Nc4ccc(OC)cc4)ncnc3cc21 ?
### Response > 100 µM

### Prompt Similarly, CC(C)c1nc2cc3c(Nc4ccccc4)ncnc3cc2n1C1CCCCC1 ?
### Response 24.7 µM

###

- Tested on: A549 (Homo sapiens)
- test protocol: Cell cycle arrest in human A549 cells assessed as accumulation at G0/G1 phase at 10 umol/L after 24 hrs by FACS relative to untreated control
quantity measured: Activity (%)
API: value field is a number in %; no unit string.

### Prompt What value of Activity has been reported for the following molecule? CCCCn1c(C(C)C)nc2cc3c(Nc4ccc(F)cc4)ncnc3cc21
### Response 86.28

### Prompt Similarly, CCOCCCn1c(C(C)C)nc2cc3c(Nc4ccc(OC)cc4)ncnc3cc21 ?
### Response 80.38

### Prompt Similarly, COc1cc2ncnc(Nc3ccc(F)c(Cl)c3)c2cc1OCCCN1CCOCC1 [GEFITINIB] ?
### Response 76.12

### Prompt Similarly, CCOCCCn1c(CC(C)C)nc2cc3c(Nc4ccc(OC)cc4)ncnc3cc21 ?
### Response 81.47

###

- Tested on: PC-3
- test protocol: Cytotoxicity against human PC3 cells after 96 hrs by MTT assay
- Assay type: functional, cell-based
- recorded conditions: PC-3, 96 h
Give pIC50 for every item shown.
To interpret pIC50, take it as minus log10 of a concentration measured in moles per litre.

### Prompt What value of pIC50 has been reported for the following molecule? CCCCn1c(C(C)C)nc2cc3c(Nc4ccc(C)cc4)ncnc3cc21
### Response 4.61

### Prompt Similarly, CCCCn1c(C(C)C)nc2cc3c(Nc4ccc(OC)cc4)ncnc3cc21 ?
### Response 4.72

### Prompt Similarly, COc1ccc(Nc2ncnc3cc4c(cc23)nc(C(C)C)n4C2CCCCC2)cc1 ?
### Response 4.64

### Prompt Similarly, CCCCn1c(C(C)C)nc2cc3c(Nc4ccc(F)cc4)ncnc3cc21 ?
### Response 5.01

###

- Test system: K562
- test protocol: Cytotoxicity against human K562 cells after 96 hrs by MTT assay
- Format: functional, cell-based
- recorded conditions: K562, 96 h
Give IC50 for every item shown.
API: value field is a number in µM; no unit string.

### Prompt Find IC50 (K562) for the entry CCCCCCc1nc2cc3c(Nc4ccc(OC)cc4)ncnc3cc2n1CCCOCC
### Response 40.9

### Prompt Similarly, CCCc1nc2cc3c(Nc4ccc(OC)c(OC)c4)ncnc3cc2n1CCCOC ?
### Response 14.3

### Prompt Similarly, CCOCCCn1c(CC(C)C)nc2cc3c(Nc4ccc(OC)cc4)ncnc3cc21 ?
### Response 14.4

### Prompt Similarly, CCOCCCn1c(C(C)C)nc2cc3c(Nc4ccc(OC)cc4)ncnc3cc21 ?
### Response 5.18

### Prompt Similarly, COc1ccc(Nc2ncnc3cc4c(cc23)nc(C(C)C)n4C2CCCCC2)cc1 ?
### Response 19.3

### Prompt Similarly, CC(C)c1nc2cc3c(Nc4ccccc4)ncnc3cc2n1C1CCCCC1 ?
### Response 17.4

###

Give IC50 for every item shown.
- System: K562
- test protocol: Cytotoxicity against human K562 cells after 96 hrs by MTT assay
- Assay type: functional, cell-based
- recorded conditions: K562, 96 h
API: value field is a number in µM; no unit string.

### Prompt What value of IC50 has been reported for the following compound? CCCCn1c(C(C)C)nc2cc3c(Nc4ccc(OC)c(OC)c4)ncnc3cc21
### Response 18.5

### Prompt Similarly, CCOCCCn1c(Cc2ccccc2)nc2cc3c(Nc4ccc(OC)cc4)ncnc3cc21 ?
### Response 12.9

### Prompt Similarly, CCCCn1c(C(C)C)nc2cc3c(Nc4ccc(F)cc4)ncnc3cc21 ?
### Response 5.55

###

- Test system: MDA-MB-231
- test protocol: Cytotoxicity against human MDA-MB-231 cells after 96 hrs by MTT assay
- Format: functional, cell-based
- recorded conditions: MDA-MB-231, 96 h
quantity measured: IC50

### Prompt What value of IC50 has been reported for the following compound? CC(C)c1nc2cc3c(Nc4ccccc4)ncnc3cc2n1C1CCCCC1
### Response > 100 µM

### Prompt Similarly, CCCc1nc2cc3c(Nc4ccc(OC)cc4)ncnc3cc2n1CCCOCC ?
### Response > 100 µM

### Prompt Similarly, CCOCCCn1c(C(C)C)nc2cc3c(Nc4ccc(OC)cc4)ncnc3cc21 ?
### Response > 100 µM

Where do the numbers come from? From ChEMBL document CHEMBL1152829.
